System: EKVX NSCLC
Assay: NCI tumour cell line growth inhibition, 48 h
Decision: TGI compared against 6 µM; not below it gives true, below it gives false.

Quick check, TGI >= 6 µM? COc1cc(/C=C2\CC/C(=C\c3cc(OC)c(O)c(OC)c3)C2=O)cc(OC)c1O
true

Quick check, TGI >= 6 µM? O=c1[nH]nc(-c2ccccc2)n1/N=C/c1ccc([N+](=O)[O-])o1
true

Quick check, TGI >= 6 µM? FC(F)(F)c1cc(N(C2c3ccccc3C=Cc3ccccc32)P(Cl)Cl)cc(C(F)(F)F)c1
true

Quick check, TGI >= 6 µM? ClC(Cl)(Cl)C1CCOC1n1nnc2ccccc21 (stereo not given)
true

Quick check, TGI >= 6 µM? COC(=O)c1ccccc1C1CN=NC12Cc1c(ccc3c1CCC3)C2=O (stereo not given)
true

Quick check, TGI >= 6 µM? CCC[CH2][Sn]([CH2]CCC)([O]C(=O)c1cc(OC)c(OC)cc1OC)[O][Sn]([CH2]CCC)([CH2]CCC)[O]C(=O)c1cc(OC)c(OC)cc1OC
false

Quick check, TGI >= 6 µM? CN(C)c1ccc(Nc2c3ccccc3nc3ccccc23)cc1
true

Quick check, TGI >= 6 µM? NC(CCCC(N)P(=O)(O)O)C(=O)O (stereo not given)
true

Quick check, TGI >= 6 µM? CC1C(NNC(N)=O)Oc2cc3c(cc2C1c1ccccc1O)OCO3 (stereo not given)
true

Quick check, TGI >= 6 µM? COc1ccc2c(c1)nc(NNC(=O)c1cnccn1)c1cccn12
false

###

Tested on: SF-295 CNS
Assay: NCI tumour cell line growth inhibition, 48 h
measurementLabel: TGI

The molecule C[C@]12CC[C@H]3[C@@H](CCC4=CC(=O)C=C[C@@]43OC(=O)C(F)(F)F)[C@@H]1CCC2=O showed TGI equal to > 100 µM

The molecule COc1ccc(-n2c(=O)c3[nH]c(=S)[nH]c3n(-c3ccc(OC)cc3)c2=S)cc1 showed TGI equal to > 100 µM

The molecule C#CC(O)(c1nc2ccccc2s1)c1nc2ccccc2s1 showed TGI equal to 76.8 µM

The molecule COc1ccc(C(=O)Cn2c(C(=O)c3ccccc3)nc3ccccc32)cc1 showed TGI equal to > 100 µM

The molecule CCOc1ccc2c(-c3ccnc(Nc4cc(OC)cc(C(F)(F)F)c4)n3)cnn2n1 showed TGI equal to > 25 µM

The molecule O=C1C2C(C(=O)N1c1ccccc1)C1c3ccccc3C2C2C(=O)N(c3ccccc3)C(=O)C21 (configuration not stated) showed TGI equal to 15.5 µM

The molecule O=C1NC(=O)c2ccccc2/C1=C/c1ccc2c(c1)OCO2 showed TGI equal to 83.1 µM

The molecule ClC(Cl)(Cl)C1CCOC1n1nnc2ccccc21 (configuration not stated) showed TGI equal to > 100 µM

The molecule N#CC1(C#N)C(C#N)(C#N)C1(C#N)C(N)=O showed TGI equal to > 100 µM

The molecule CC(C(=O)OCc1ccccc1)N(Cc1ccccc1)Cc1ccccc1 (configuration not stated) showed TGI equal to > 100 µM

The molecule CNc1nnc(CCCCCCCCc2nnc(NC)o2)o1 showed TGI equal to > 100 µM

The molecule COC1C(OC(=O)c2ccc(C)[nH]2)C(O)C(Oc2ccc3c(O)c(NC(=O)c4c[nH]c(C(=O)Nc5c(O)c6ccc(OC7OC(C)(C)C(OC)C(OC(=O)c8ccc(C)[nH]8)C7O)c(C)c6oc5=O)c4C)c(=O)oc3c2C)OC1(C)C (configuration not stated) showed TGI equal to > 100 µM
